// reported koff for each item listed
Biological target: T1, mouse 4-1BB extracellular domain, His tag (mouse, UniProt P20334 24-187)
T1 construct: extracellular domain; also called mPro1.ECD.His; not shown: His tag
T1 sequence (looked up): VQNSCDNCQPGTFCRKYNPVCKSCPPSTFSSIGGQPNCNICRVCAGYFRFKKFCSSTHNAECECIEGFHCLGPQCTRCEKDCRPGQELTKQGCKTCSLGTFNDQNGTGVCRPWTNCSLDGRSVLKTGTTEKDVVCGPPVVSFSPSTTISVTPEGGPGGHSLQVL
Assay: SPR, Biacore T200; antibody captured on Protein G chip, mouse 4-1BB ECD.His as analyte

binder: 2.27.16-u1-1-hIgG1L (antibody, V domains shown, Fully human antibody) VH: QEQLQESGPGLVKPSQTLSLTCTVSGGSINSQGYYWSWIRQHPGKGLEWIGYIYDSGSAYYNPSLERRVAISLDTSKNQFSLNLNSVTVADTAVYYCARIVAAGRIDPWGQGTLVTVSS VL: SYVLTQPPSVSVAPGQTARMTCGGDNIGIKIVHWYQQKAGQAPVLVVYDDNDRPSGIPDRFSGSNSGNTATLTISRVAAGDEADYYCQVWDRRSDHVVFGGGTKLTVL
koff, s⁻¹: 0.00134
--
binder: 2.19.8-u1-3-hIgG4L (antibody, V domains shown) VH: QVQLVESGGGLVKPGGSLRLSCAASGFTFSDYFMSWIRQAPGKGLEWVSYISNAGSSKYYADSVKGRFTISRDNAKNSLYLQMNSLRAEDTAVYYCVRDPYSGSYSGWFDPWGQGTLVTVSS VL: SYDLTQPPSVSVSPGQTASITCSGDDLGDKYTSWYQQKPGQSPVLVVYQDHKRPSGIPERFSGSNSGNTATLTISGTQAMDEADYYCQAWDKGIVVFGGGTKLTVL
koff, s⁻¹: 0.215
--
binder: 2.27.16-u1-1-hIgG4L (antibody, V domains shown) VH: QEQLQESGPGLVKPSQTLSLTCTVSGGSINSQGYYWSWIRQHPGKGLEWIGYIYDSGSAYYNPSLERRVAISLDTSKNQFSLNLNSVTVADTAVYYCARIVAAGRIDPWGQGTLVTVSS VL: SYVLTQPPSVSVAPGQTARMTCGGDNIGIKIVHWYQQKAGQAPVLVVYDDNDRPSGIPDRFSGSNSGNTATLTISRVAAGDEADYYCQVWDRRSDHVVFGGGTKLTVL
koff, s⁻¹: 0.00136
--
binder: 2.19.8-u1-3-hIgG1L (antibody, V domains shown, Fully human antibody) VH: QVQLVESGGGLVKPGGSLRLSCAASGFTFSDYFMSWIRQAPGKGLEWVSYISNAGSSKYYADSVKGRFTISRDNAKNSLYLQMNSLRAEDTAVYYCVRDPYSGSYSGWFDPWGQGTLVTVSS VL: SYDLTQPPSVSVSPGQTASITCSGDDLGDKYTSWYQQKPGQSPVLVVYQDHKRPSGIPERFSGSNSGNTATLTISGTQAMDEADYYCQAWDKGIVVFGGGTKLTVL
koff, s⁻¹: 0.975
